TARGET DESC: human recombinant serotonin (5-Hydroxytryptamine) 5-HT2A receptor (Homo sapiens)
Construct: expressed in transfected cells; host or cells: CHO-K1 cells
Sequence (P28223 whole entry): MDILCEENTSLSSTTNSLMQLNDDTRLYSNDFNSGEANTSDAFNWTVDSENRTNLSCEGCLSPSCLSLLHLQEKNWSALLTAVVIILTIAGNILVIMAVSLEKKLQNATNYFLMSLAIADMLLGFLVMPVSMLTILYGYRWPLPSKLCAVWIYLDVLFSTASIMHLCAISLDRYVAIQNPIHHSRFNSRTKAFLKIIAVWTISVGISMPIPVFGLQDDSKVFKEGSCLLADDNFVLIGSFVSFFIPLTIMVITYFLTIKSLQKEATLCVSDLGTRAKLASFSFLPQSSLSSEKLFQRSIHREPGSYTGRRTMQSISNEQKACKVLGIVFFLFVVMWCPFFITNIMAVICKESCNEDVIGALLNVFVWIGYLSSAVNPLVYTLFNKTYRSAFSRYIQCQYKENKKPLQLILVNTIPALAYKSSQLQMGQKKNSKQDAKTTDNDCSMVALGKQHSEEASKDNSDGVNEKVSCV
PROCEDURE DETAILS: Serotonin 5-HT2A radioligand binding ([3H]Ketanserin)
EXPERIMENTAL CONTEXT: 1 h; read-out: Percent Inhibition of ligand binding Serotonin (1 μM ligand concentration) 5-HT2A
MEASURED ENDPOINT: inhibition at 1 µM (%)
Output spec: scalar in %, unitless text.

**Q:** Could you share what inhibition at 1 µM was measured for CN1CCc2c(n(CC(O)c3ccccc3)c3ccc(Cl)cc23)C1 (stereo not drawn) , tested on human recombinant serotonin (5-Hydroxytryptamine) 5-HT2A receptor (Homo sapiens)?
**A:** 87

**Q:** Now consider C/C(=C\n1c2c(c3cc(C)ccc31)CCN(C)C2)c1ccc(Cl)cc1 and answer again.
**A:** 97

**Q:** Record: CCC1c2c(c3cc(Cl)ccc3n2CC(C)(O)c2ccc(F)cc2)CCN1C (stereo not drawn)
**A:** 62

**Q:** Could you do the same for COc1ccc(/C(C)=C/n2c3c(c4cc(C)ccc42)CCN(C)C3)cc1F , please?
**A:** 96

**Q:** Next: C/C(=C\n1c2c(c3cc(C)ccc31)CCN(C)C2C)c1ccc(Cl)cc1Cl (stereo not drawn)
**A:** 97

**Q:** Request: CN1CCc2c(n(CC(=O)NC3CCCCC3)c3ccc(Cl)cc23)C1
**A:** 17

**Q:** Please do the same for C/C(=C\n1c2c(c3cc(C)ccc31)CCN(C)C2)c1ccc(F)c(F)c1 as well.
**A:** 96

**Q:** And for CN1CCc2c(n(CC(=O)O)c3ccc(Cl)cc23)C1 ?
**A:** -11

**Q:** Please give the result for CN1CCc2c(n(CC(=O)N3CCCC3)c3ccc(Cl)cc23)C1 too.
**A:** 5

====

TARGET DESC: human recombinant adrenergic α1D receptor (Homo sapiens, UniProt P25100)
Construct: expressed in transfected cells; host or cells: HEK-293 cells
Sequence (P25100 whole entry): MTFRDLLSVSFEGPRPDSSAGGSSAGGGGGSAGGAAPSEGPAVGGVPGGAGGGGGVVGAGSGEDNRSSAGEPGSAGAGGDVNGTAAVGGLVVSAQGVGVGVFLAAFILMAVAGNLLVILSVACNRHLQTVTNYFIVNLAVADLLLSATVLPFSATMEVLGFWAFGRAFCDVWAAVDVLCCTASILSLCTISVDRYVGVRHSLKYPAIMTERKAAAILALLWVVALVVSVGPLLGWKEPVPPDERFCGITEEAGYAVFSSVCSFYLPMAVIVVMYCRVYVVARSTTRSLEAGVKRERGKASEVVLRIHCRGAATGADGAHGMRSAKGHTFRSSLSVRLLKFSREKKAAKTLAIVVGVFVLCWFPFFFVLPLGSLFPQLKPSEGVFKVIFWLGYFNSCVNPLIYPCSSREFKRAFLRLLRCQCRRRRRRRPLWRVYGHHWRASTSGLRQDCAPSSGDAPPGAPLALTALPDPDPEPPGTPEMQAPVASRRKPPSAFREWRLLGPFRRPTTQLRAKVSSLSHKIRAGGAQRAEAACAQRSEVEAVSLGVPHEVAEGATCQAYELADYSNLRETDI
PROCEDURE DETAILS: Adrenergic α1D radioligand binding ([3H]Prozosin)
EXPERIMENTAL CONTEXT: 1 h; read-out: Percent Inhibition of ligand binding Adrenergic (1 μM ligand conc.) α1D
MEASURED ENDPOINT: inhibition at 1 µM (%)
Field: numeric (%). Do not append units.

**Q:** Recorded inhibition at 1 µM of CN1CCc2c(n(CC(=O)N(C)C)c3ccc(Cl)cc23)C1 , please.
**A:** 2

**Q:** Item: Cc1ccc2c(c1)c1c(n2CC(O)c2ccccc2)CN(C)CC1 (stereo not drawn)
**A:** 85

**Q:** // repeat for C/C(=C/n1c2c(c3cc(C)ccc31)CCN(C)C2C)c1ccccc1F (stereo not drawn) and report
**A:** 26

**Q:** And the next one, CN1CCc2c(n(CC(=O)N3CCNCC3)c3ccc(Cl)cc23)C1 ?
**A:** 10

**Q:** Let us now turn to C/C(=C\n1c2c(c3cc(C)ccc31)CCN(C)C2C)c1ccc(Cl)cc1 (stereo not drawn)
**A:** 32

**Q:** Now consider Cc1ccc2c(c1)c1c(n2CCc2ccc(C)nc2)CN(C)CC1 and answer again.
**A:** 65

**Q:** Similarly, CCC1c2c(c3cc(Cl)ccc3n2CCc2ccc(F)cc2)CCN1C (stereo not drawn) ?
**A:** 42

**Q:** And the next one, CN1CCc2c(n(CC(O)c3ccccc3F)c3ccc(Cl)cc23)C1 (stereo not drawn) ?
**A:** 30

**Q:** Now give it for Cc1ccc2c(c1)c1c(n2CCc2ccc(C(F)(F)F)nc2)CN(C)CC1 too.
**A:** 64

**Q:** What do you have for C/C(=C\n1c2c(c3cc(C)ccc31)CCN(C)C2c1ccccc1)c1ccc(Cl)cc1 (stereo not drawn) ?
**A:** 10

**Q:** Also check CN1CCc2c(n(CCCc3ccccc3)c3ccc(Cl)cc23)C1
**A:** 84

**Q:** How about this molecule: CCC1c2c(c3cc(Cl)ccc3n2C#Cc2ccc(F)cc2)CCN1C (stereo not drawn)
**A:** 10

**Q:** Now this one: COC(=O)Cn1c2c(c3cc(Cl)ccc31)CCN(C)C2
**A:** 11

**Q:** And for C/C(=C\n1c2c(c3cc(C)ccc31)CCN(C)C2)c1ccc(F)cc1 ?
**A:** 73

**Q:** Check CCC1c2c(c3cc(C)ccc3n2/C=C(\C)c2ccc(Cl)cc2)CCN1C (stereo not drawn) too.
**A:** 25
